Values compiled from patent US7919488B2.

Give Ki for every item shown.
Target: recombinant CYP3A4+b5 enzyme (Supersomes®) (Homo sapiens, UniProt P08684)
Construct: purchased BD Biosciences (Woburn, Mass.)
Sequence (P08684 2-503 limits assumed): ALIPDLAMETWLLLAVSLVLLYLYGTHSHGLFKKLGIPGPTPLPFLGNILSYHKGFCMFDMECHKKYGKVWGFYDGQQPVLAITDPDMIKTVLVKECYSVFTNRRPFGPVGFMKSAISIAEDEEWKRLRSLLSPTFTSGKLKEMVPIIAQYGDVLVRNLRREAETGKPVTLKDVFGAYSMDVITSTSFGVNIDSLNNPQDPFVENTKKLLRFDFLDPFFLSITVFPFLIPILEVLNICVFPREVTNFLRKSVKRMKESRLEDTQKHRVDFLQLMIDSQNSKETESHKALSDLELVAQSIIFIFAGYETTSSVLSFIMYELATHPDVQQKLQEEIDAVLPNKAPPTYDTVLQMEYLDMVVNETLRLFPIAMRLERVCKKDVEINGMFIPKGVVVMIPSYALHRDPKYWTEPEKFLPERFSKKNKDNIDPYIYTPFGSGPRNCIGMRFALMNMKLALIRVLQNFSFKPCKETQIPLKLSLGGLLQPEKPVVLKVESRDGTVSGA
Assay: Kiapp against recombinant CYP3A4 enzyme (Supersomes), BFC substrate
Format: biochemical
Details: recombinant CYP3A4+b5 (BD Biosciences), 5 uM BFC, 200 uM NADPH, pre-incubation at least 30 minutes, pH 7.0, room temperature
One number for each entry, in µM.

Consider the reported Ki for these compounds:
Compound	System under test	Units	Ki
CC(=O)NC1CN(C(=O)Cn2nc(-c3ccncc3)cc2Cc2ccc(F)cc2)C1	recombinant CYP3A4+b5 enzyme (Supersomes®) (Homo sapiens, UniProt P08684)	µM	0.0191
O=C(Cn1nc(-c2ccncc2)cc1Cc1ccc(F)cc1)N1CCC(N2CCOCC2)CC1	recombinant CYP3A4+b5 enzyme (Supersomes®) (Homo sapiens, UniProt P08684)	µM	0.0036
O=C(Cn1nc(-c2ccncc2)cc1Cc1ccc(F)cc1)N1CCC(N2CCCS2(=O)=O)CC1	recombinant CYP3A4+b5 enzyme (Supersomes®) (Homo sapiens, UniProt P08684)	µM	0.0068
O=C(Cn1nc(-c2ccncc2)cc1Cc1ccc(F)cc1)NC1CCS(=O)(=O)C1 (centres unmarked)	recombinant CYP3A4+b5 enzyme (Supersomes®) (Homo sapiens, UniProt P08684)	µM	0.0039
COC(=O)N[C@H]1CCN(C(=O)Cn2nc(-c3ccncc3)cc2Cc2ccc(F)cc2)C1	recombinant CYP3A4+b5 enzyme (Supersomes®) (Homo sapiens, UniProt P08684)	µM	0.00618

For each of the compounds below, state Ki.
1. CS(=O)(=O)C1CCN(C(=O)Cn2nc(-c3ccncc3)cc2Cc2ccc(F)cc2)CC1
2. CNC(=O)NC1CN(C(=O)Cn2nc(-c3ccncc3)cc2Cc2ccc(F)cc2)C1
3. O=C(Cn1nc(-c2ccncc2)cc1Cc1ccc(F)cc1)N1CC(N2CCOCC2)C1

Found:
0.0118
0.031
0.0136
